Give pEC50 for every item shown.
test system: SW1990 pancreatic adenocarcinoma cells [homozygous G12D]; assay: Cancer cell line proliferation (CellTiter-Glo), SW1990; format: cell-based; details: Homo sapiens, 72 hr treatment, read-out: SW1990 CTG (EC50)
pEC50: −log10 of the molar value.

(Q) Which pEC50 value is on record for C#Cc1c(F)ccc2cc(O)cc(-c3ncc4c(N5CC6CCC(C5)N6)nc(OCC5CN(C6CN(Cc7ccc8c(c7)CN(C(=O)c7cc(C(C)C)c(O)cc7O)C8)C6)C5)nc4c3F)c12 [Compound 193] ?
(A) 6.00 to 7.00

(Q) Try this molecule too: CC(C)c1cc(C(=O)N2Cc3ccc(CN4CCN([C@H]5C[C@@H](COc6nc(N7CC8CCC(C7)N8)c7cnc(-c8ccccc8C(F)(F)F)c(F)c7n6)N(C)C5)CC4)cc3C2)c(O)cc1O [Compound 58]
(A) 6.00 to 7.00

(Q) Please give the result for C#Cc1c(F)ccc2cc(O)cc(-c3ncc4c(N5CC6CCC(C5)N6)nc(OCC5(CN6CCN(CC7CCN(c8ccc(-n9c(C(=O)NCC)nnc9-c9cc(C(C)C)c(O)cc9O)cc8)CC7)CC6)CC5)nc4c3F)c12 [Compound 145] too.
(A) > 7.00

(Q) Also need C#Cc1c(F)ccc2cc(O)cc(-c3ncc4c(N5CC6CCC(C5)N6)nc(OCC5(CN6CCN(CC7CCN(Cc8ccc(-n9c(C(=O)NCC(F)(F)F)nnc9-c9cc(C(C)C)c(O)cc9O)cc8)CC7)CC6)CC5)nc4c3F)c12 [Compound 154] , thanks.
(A) > 7.00

(Q) Thanks! And C#Cc1cccc2cc(O)cc(-c3ncc4c(N5CC6CCC(C5)N6)nc(OCC5(CN6CCN(CC7CCN(Cc8ccc9c(c8)CN(C(=O)c8cc(C(C)C)c(OC)cc8O)C9)CC7)CC6)CC5)nc4c3F)c12 [Compound 144] ?
(A) 6.00 to 7.00

---

system: AGS gastric carcinoma cells [heterozygous G12D]; assay: Cancer cell line proliferation (CellTiter-Glo), AGS; assay type: cell-based; conditions: Homo sapiens, 72 hr treatment, read-out: AGS CTG (EC50)
pEC50: −log10 of the molar value.
Exercise: state measured pEC50 for each of the molecules provided.

(Q) What measured pEC50 goes with CC(C)c1cc(-c2nnc(C(=O)NCC(F)(F)F)n2-c2ccc(CN3CCN([C@H]4C[C@@H](COc5nc(N6CC7CCC(C6)N7)c6cnc(-c7cc(O)cc8ccccc78)c(F)c6n5)N(C)C4)CC3)cc2)c(O)cc1O ?
(A) > 7.00

(Q) What do you have for C#Cc1cccc2cc(O)cc(-c3ncc4c(N5CC6CCC(C5)N6)nc(OC[C@@H]5C[C@H](N6CCN(Cc7ccc(-n8c(C(=O)NC(C)C)nnc8-c8cc(C(C)C)c(O)cc8O)cc7)CC6)CN5C)nc4c3F)c12 ?
(A) 6.00 to 7.00

(Q) // repeat for C#Cc1c(F)ccc2cc(O)cc(-c3nc(OC)c4c(N5CC6CCC(C5)N6)nc(OCC5(CN6CCN(CC7CCN(Cc8ccc(-n9c(C(=O)NCC(F)(F)F)nnc9-c9cc(C(C)C)c(O)cc9O)cc8)CC7)CC6)CC5)nc4c3F)c12 and report
(A) > 7.00

(Q) Try this molecule too: CC(C)c1cc(C(=O)N2Cc3ccc(CN4CCN(C[C@H]5C[C@@H](COc6nc(N7CC8CCC(C7)N8)c7cnc(-c8cc(O)cc9ccccc89)c(F)c7n6)N(C)C5)CC4)cc3C2)c(O)cc1O
(A) 6.00 to 7.00

(Q) How about C#Cc1c(F)ccc2cc(O)cc(-c3ncc4c(N5CC6CCC(C5)N6)nc(OCC5(CN6CCC(N7CCC(Oc8ccc9c(n8)CN(C(=O)c8cc(C(C)C)c(O)cc8O)C9)CC7)CC6)CC5)nc4c3F)c12 ?
(A) > 7.00

(Q) Same lookup for Cc1cccc2cccc(-c3ncc4c(N5CC6CCC(C5)N6)nc(OC[C@@H]5CC[C@H](CN6CCN(C(=O)C7CCN(Cc8ccc9c(c8)CN(C(=O)c8cc(C(C)C)c(O)cc8O)C9)CC7)CC6)N5C)nc4c3F)c12 , please.
(A) 6.00 to 7.00

(Q) Repeat for the following molecule: Cc1c(F)cccc1-c1ncc2c(N3CC4CCC(C3)N4)nc(OC[C@@H]3C[C@H](N4CCN(Cc5ccc6c(c5)CN(C(=O)c5cc(C(C)C)c(O)cc5O)C6)CC4)CN3C)nc2c1F
(A) 6.00 to 7.00

(Q) Entry to check: Cc1cccc2cccc(-c3ncc4c(N5CC6CCC(C5)N6)nc(OC[C@@H]5CC[C@H](CN6CCN(Cc7ccc8c(c7)CN(C(=O)c7cc(C(C)C)c(O)cc7O)C8)CC6)N5C)nc4c3F)c12
(A) 6.00 to 7.00

(Q) Also C#Cc1c(F)ccc2cc(O)cc(-c3ncc4c(N5CC6CNC(C6)C5)nc(OCC5(CN6CCC(C7CCN(Cc8ccc9c(c8)CN(C(=O)c8cc(O)c(C(C)C)cc8O)C9)CC7)CC6)CC5)nc4c3F)c12 (stereo not drawn) ?
(A) 6.00 to 7.00

---

System: AGS gastric carcinoma cells [heterozygous G12D]
Assay: Cancer cell line proliferation (CellTiter-Glo), AGS
Format: cell-based
Conditions: Homo sapiens, 72 hr treatment, read-out: AGS CTG (EC50)
Procedure: The following cancer cell lines were employed: AGS gastric carcinoma [heterozygous G12D](ATCC, CRL-1739); A-427 lung carcinoma [heterozygous G12D](ATCC, HTB-53); ASPC1 pancreatic adenocarcinoma [homozygous G12D](ATCC, CRL-1682) and SW1990 pancreatic adenocarcinoma [homozygous G12D](ATCC CRL-2172). Cell lines were cultured essentially according to ATCC recommendations. […]
measuredParameter: EC50

(Q) For the compound C#Cc1c(F)ccc2cc(O)cc(-c3ncc4c(N5CC6CCC(C5)N6)nc(OCC5CN(Cc6ccc7c(c6)CN(C(=O)c6cc(C(C)C)c(O)cc6O)C7)C5)nc4c3F)c12 [Compound 172] , what EC50 is on record?
(A) 100 to 1000 nM

(Q) Moving on to the next compound: Cc1cccc(-c2ncc3c(N4CC5CCC(C4)N5)nc(OC[C@@H]4C[C@H](N5CCN(Cc6ccc(-n7c(O)nnc7-c7cc(C(C)C)c(O)cc7O)cc6)CC5)CN4C)nc3c2F)c1C [Compound 52]
(A) 100 to 1000 nM

(Q) Okay, and CCNC(=O)c1nnc(-c2cc(C(C)C)c(O)cc2O)n1-c1ccc(CN(C)[C@@H]2CN3CCC[C@@]3(COc3nc(N4CC5CCC(C4)N5)c4cnc(-c5cc(O)cc6ccccc56)c(F)c4n3)C2)cc1 [Compound 41] ?
(A) 100 to 1000 nM

---

tested on: AGS gastric carcinoma cells [heterozygous G12D]; assay: Cancer cell line proliferation (CellTiter-Glo), AGS; type: cell-based; settings: Homo sapiens, 72 hr treatment, read-out: AGS CTG (EC50)
pEC50: −log10 of the molar value.
measuredParameter: pEC50

(Q) Entry CCNC(=O)c1nnc(-c2cc(C(C)C)c(O)cc2O)n1-c1ccc(CN2CCN([C@H]3C[C@@H](COc4nc(N5CC6CCC(C5)N6)c5cnc(-c6cccc7cccc(F)c67)c(F)c5n4)N(C)C3)CC2)cc1 has what pEC50?
(A) > 7.00

(Q) Entry C#Cc1c(F)ccc2cc(O)cc(-c3nc(OC)c4c(N5CC6CCC(C5)N6)nc(OCC5(CN6CCN(CC7CCN(Cc8ccc9c(c8)CN(C(=O)c8cc(C(C)C)c(O)cc8O)C9)CC7)CC6)CC5)nc4c3F)c12 please
(A) > 7.00

(Q) Entry C#Cc1cccc2cc(O)cc(-c3ncc4c(N5CC6CCC(C5)N6)nc(OCC5(CN6CCN(CC7CCN(c8ccc(-n9c(C(=O)NCC)nnc9-c9cc(C(C)C)c(O)cc9O)cc8)CC7)CC6)CC5)nc4c3F)c12 please
(A) > 7.00

(Q) What would you report for C#Cc1c(F)ccc2cc(O)cc(-c3ncc4c(N5CC6CCC(C5)N6)nc(OCC5(CN6CC(C7CN(Cc8ccc9c(c8)CN(C(=O)c8cc(C(C)C)c(O)cc8O)C9)C7)C6)CC5)nc4c3F)c12 ?
(A) > 7.00

(Q) Then this compound: C#Cc1cccc2cccc(-c3ncc4c(N5CC6CCC(C5)N6)nc(OCC5(CN6CCN(C(=O)C7CCN(Cc8ccc(-n9c(C(=O)NCC)nnc9-c9cc(C(C)C)c(O)cc9O)cc8)CC7)CC6)CC5)nc4c3F)c12
(A) > 7.00

(Q) What would you report for CCNC(=O)c1nnc(-c2cc(C(C)C)c(O)cc2O)n1-c1ccc(CN2CCC(C(=O)N(C)[C@H]3CN4CCC[C@]4(COc4nc(N5CC6CCC(C5)N6)c5cnc(-c6cc(O)cc7ccccc67)c(F)c5n4)C3)CC2)cc1 ?
(A) 6.00 to 7.00

(Q) Same question for C#Cc1cccc2cc(O)cc(-c3ncc4c(N5CC6CCC(C5)N6)nc(OC[C@@H]5C[C@H](N6CCN(Cc7ccc(-n8c(C(=O)NCC)nnc8-c8cc(C(C)C)c(O)cc8O)cc7)CC6)CN5C)nc4c3F)c12 please.
(A) 6.00 to 7.00

(Q) Ok, now C#Cc1cccc2cccc(-c3ncc4c(N5CC6CCC(C5)N6)nc(OCCN5CCN(Cc6ccc(-n7c(C(=O)NCC)nnc7-c7cc(C(C)C)c(O)cc7O)cc6)CC5)nc4c3F)c12
(A) > 7.00

(Q) Next compound: C#Cc1cccc2cc(O)cc(-c3ncc4c(N5CC6CCC(C5)N6)nc(OCC5(CN6CC[C@H](C(=O)N7CCN(Cc8ccc9c(c8)CN(C(=O)c8cc(C(C)C)c(O)cc8O)C9)CC7)C6)CC5)nc4c3F)c12
(A) 6.00 to 7.00
